Reported values of pKd for individual entries
# Subject Of Test: T1, LNX2_2, Q8N448
# T1 sequence (Q8N448 334-432, limits assumed, looked up): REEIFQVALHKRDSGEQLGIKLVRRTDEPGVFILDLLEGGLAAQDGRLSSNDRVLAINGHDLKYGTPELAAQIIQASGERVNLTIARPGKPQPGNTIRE
# Method Notes: holdup assay
# Design: key: below the threshold = too weak to quantify, mostly under pKd 3.1 to 4
# Condition Label: plain residues with an end cap or a label only (N-terminal biotin on a linker: ttds)

Binder: RLQRRRETQV [HPV18-E6, P06463]
pKd: 3.17
--
Binder: SSLQSLETSV [ATP2B4, P23634]
pKd: 4.01
--
Binder: RHTTSTETAV [HPV30-E6, P36809]
pKd: 3.77
--
Binder: QRQARSETLV [HPV59-E6, Q81964]
pKd: 5.04

The origin of these recorded values is paper PMC9482650.
